This collection of values is drawn from paper PMC12102759.

B1: NEK9 peptide 736-751 (Serine/threonine-protein kinase Nek9), 16-mer library wild type / NSP9 (ORF1ab Nsp9, residues 4141-4253) (parent)
chain 1: NSSGLSIGTVFQSSSP
chain 2: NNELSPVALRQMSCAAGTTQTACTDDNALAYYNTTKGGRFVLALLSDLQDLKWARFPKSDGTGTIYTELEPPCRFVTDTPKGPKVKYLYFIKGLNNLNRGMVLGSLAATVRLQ

- Variants of: B1
- MEASUREMENT SETUP: with NSP9 (ORF1ab Nsp9, residues 4141-4253); bait immobilised on MaxiSorp plates (10 µg), library pre-cleared on GST, 2 h binding at 4 °C, five washes; one round per day, days 1-4; value from days 2 and 3; keep out of graded; scale: average fractional NGS count over selection days 2 and 3
QUANTITY: screen value
Output spec: single numeric token, no unit.

Consider the worked cases shown below.
VARIANT ID	screen value
chain 1 F11G	0.000245
chain 1 S3D	0.000508
chain 1 S6F	0
chain 1 Q12P	0

Record chain 1 S14E . Reported screen value: 0

Record chain 1 S13T . Reported screen value: 0.000105
